test system: Candida tropicalis; experiment: In vitro Minimum inhibitory concentration (MIC) for antifungal activity against Candida tropicalis 2808; assay type: functional
Property: MIC (µg/mL)

- Compound: "CO[C@H]1C(OC(=O)CCCCCl)C(O)[C@H](OCC23C[C@@H]4[C@H](C)CC[C@H]4C4(C=O)CC2C=C(C(C)C)C34C(=O)O)O[C@@H]1C (single isomer, unassigned)"
  Property: "MIC"
  Unit string: "µg/mL"
  Recorded number: 1

a. CCCCCC(=O)OC1C(O)[C@H](OCC23C[C@@H]4[C@H](C)CC[C@H]4C4(C=O)CC2C=C(C(C)C)C34C(=O)O)O[C@H](C)[C@H]1OC (single isomer, unassigned)
b. CCCCCCCCOC(=O)O[C@H]1C(O)[C@H](OCC23C[C@@H]4[C@H](C)CC[C@H]4C4(C=O)CC2C=C(C(C)C)C34C(=O)O)O[C@H](C)[C@H]1OC (stereo not given in full)
Param pair: a , b . Output: the one whose MIC is numerically greater. Indicate which entry you chose by stating its label.
b

====

test system: Candida albicans; assay: In vitro Minimum inhibitory concentration (MIC) for antifungal activity against Candida albicans 1208; format: functional
Property: MIC (µg/mL)

- Compound: "CO[C@H]1C(OC(=O)c2ccccc2)C(O)[C@H](OCC23C[C@@H]4[C@H](C)CC[C@H]4C4(C=O)CC2C=C(C(C)C)C34C(=O)O)O[C@@H]1C (single isomer, unassigned)"
  Property: "MIC"
  Recorded number: 1

1. CCCCCCCCNC(=O)O[C@H]1C(O)[C@H](OCC23C[C@@H]4[C@H](C)CC[C@H]4C4(C=O)CC2C=C(C(C)C)C34C(=O)O)O[C@H](C)[C@H]1OC (stereo not given in full)
2. CCCCCCCCCC(=O)OC1C(O)[C@H](OCC23C[C@@H]4[C@H](C)CC[C@H]4C4(C=O)CC2C=C(C(C)C)C34C(=O)O)O[C@H](C)[C@H]1OC (single isomer, unassigned)
3. CO[C@H]1C(OC(=O)c2ccco2)C(O)[C@H](OCC23C[C@@H]4[C@H](C)CC[C@H]4C4(C=O)CC2C=C(C(C)C)C34C(=O)O)O[C@@H]1C (single isomer, unassigned)
// ranking: key=MIC, reverse=True Arrange the labels as the request states and list them.
3, 1, 2

====

test system: Kluyveromyces marxianus; experiment: In vitro Minimum inhibitory concentration (MIC) for antifungal activity against Candida pseudotropicalis 2371; assay type: functional
Property: MIC (µg/mL)

Examples with their reported MIC follow.
- Molecule: "CCCCCCCC(=O)OC1C(O)[C@H](OCC23C[C@@H]4[C@H](C)CC[C@H]4C4(C=O)CC2C=C(C(C)C)C34C(=O)O)O[C@H](C)[C@H]1OC (single isomer, unassigned)"
  Property: "MIC"
  Recorded number: 0.004
- Molecule: "COC1C(O)C(O)[C@H](OCC23C[C@@H]4[C@H](C)CC[C@H]4C4(C=O)CC2C=C(C(C)C)C34C(=O)O)O[C@@H]1C (single isomer, unassigned)"
  Property: "MIC"
  Recorded number: 16

A. CCC/C=C(\C)C(=O)O[C@H]1C(O)[C@H](OCC23C[C@@H]4[C@H](C)CC[C@H]4C4(C=O)CC2C=C(C(C)C)C34C(=O)O)O[C@H](C)[C@H]1OC (stereo not given in full)
B. CCCCCCCCCC(=O)OC1C(O)[C@H](OCC23C[C@@H]4[C@H](C)CC[C@H]4C4(C=O)CC2C=C(C(C)C)C34C(=O)O)O[C@H](C)[C@H]1OC (single isomer, unassigned)
Param pair: A , B . Output: the one whose MIC is numerically greater. Indicate which entry you chose by stating its label.
B
(B: 0.25 µg/mL, A: 0.12 µg/mL)

====

tested on: Candida albicans; assay: In vitro Minimum inhibitory concentration (MIC) for antifungal activity against Candida albicans 2005; type: functional
Property: MIC (µg/mL)

Examples with their reported MIC follow.
- Compound: "CCCCCC(=O)OC1C(O)[C@H](OCC23C[C@@H]4[C@H](C)CC[C@H]4C4(C=O)CC2C=C(C(C)C)C34C(=O)O)O[C@H](C)[C@H]1OC (single isomer, unassigned)"
  Property: "MIC"
  Unit string: "µg/mL"
  Recorded number: 0.015
- Compound: "CCC/C=C(\\C)C(=O)O[C@H]1C(O)[C@H](OCC23C[C@@H]4[C@H](C)CC[C@H]4C4(C=O)CC2C=C(C(C)C)C34C(=O)O)O[C@H](C)[C@H]1OC (stereo not given in full)"
  Property: "MIC"
  Unit string: "µg/mL"
  Recorded number: 0.015
- Compound: "C/C=C/C=C(\\C)C(=O)O[C@H]1C(O)[C@H](OCC23C[C@@H]4[C@H](C)CC[C@H]4C4(C=O)CC2C=C(C(C)C)C34C(=O)O)O[C@H](C)[C@H]1OC (stereo not given in full)"
  Property: "MIC"
  Unit string: "µg/mL"
  Recorded number: 0.015
- Compound: "CCCCC(C)C(=O)OC1C(O)[C@H](OCC23C[C@@H]4[C@H](C)CC[C@H]4C4(C=O)CC2C=C(C(C)C)C34C(=O)O)O[C@H](C)[C@H]1OC (single isomer, unassigned)"
  Property: "MIC"
  Unit string: "µg/mL"
  Recorded number: 0.008
- Compound: "CCCCCCCCNC(=O)O[C@H]1C(O)[C@H](OCC23C[C@@H]4[C@H](C)CC[C@H]4C4(C=O)CC2C=C(C(C)C)C34C(=O)O)O[C@H](C)[C@H]1OC (stereo not given in full)"
  Property: "MIC"
  Unit string: "µg/mL"
  Recorded number: 0.06
- Compound: "CO[C@@H]1[C@@H](C)O[C@@H](OCC23C[C@@H]4[C@H](C)CC[C@H]4C4(C=O)CC2C=C(C(C)C)C34C(=O)O)C(O)[C@@H]1OC(=O)OCc1ccccc1 (stereo not given in full)"
  Property: "MIC"
  Unit string: "µg/mL"
  Recorded number: 2
- Compound: "CO[C@H]1C(OC(=O)CCCCCl)C(O)[C@H](OCC23C[C@@H]4[C@H](C)CC[C@H]4C4(C=O)CC2C=C(C(C)C)C34C(=O)O)O[C@@H]1C (single isomer, unassigned)"
  Property: "MIC"
  Unit string: "µg/mL"
  Recorded number: 0.12
- Compound: "CCCCCCCCOC(=O)O[C@H]1C(O)[C@H](OCC23C[C@@H]4[C@H](C)CC[C@H]4C4(C=O)CC2C=C(C(C)C)C34C(=O)O)O[C@H](C)[C@H]1OC (stereo not given in full)"
  Property: "MIC"
  Unit string: "µg/mL"
  Recorded number: 0.25

I. CCCCCCCCCC(=O)OC1C(O)[C@H](OCC23C[C@@H]4[C@H](C)CC[C@H]4C4(C=O)CC2C=C(C(C)C)C34C(=O)O)O[C@H](C)[C@H]1OC (single isomer, unassigned)
II. CO[C@H]1C(OC(=O)c2ccccc2)C(O)[C@H](OCC23C[C@@H]4[C@H](C)CC[C@H]4C4(C=O)CC2C=C(C(C)C)C34C(=O)O)O[C@@H]1C (single isomer, unassigned)
Param pair: I , II . Output: the one whose MIC is numerically greater. Indicate which entry you chose by stating its label.
I

====

test system: Candida tropicalis; assay: In vitro Minimum inhibitory concentration (MIC) for antifungal activity against Candida tropicalis 2808E; type: functional
Property: MIC (µg/mL)

A. CCCCCC(=O)O[C@@H]1[C@H](OCC23C[C@@H]4[C@H](C)CC[C@H]4C4(C=O)CC2C=C(C(C)C)C34C(=O)O)O[C@H](C)C(OC)[C@H]1O (single isomer, unassigned)
B. CCCCCCOC1[C@H](O)[C@H](OCC23C[C@@H]4[C@H](C)CC[C@H]4C4(C=O)CC2C=C(C(C)C)C34C(=O)O)O[C@H](C)[C@H]1OC (single isomer, unassigned)
Param pair: A , B . Output: the one whose MIC is numerically greater. Indicate which entry you chose by stating its label.
A
(A: 62 µg/mL, B: 1 µg/mL)

====

system: Candida albicans; experiment: In vitro Minimum inhibitory concentration (MIC) for antifungal activity against Candida albicans 1208; format: functional
Property: MIC (µg/mL)

a. CCCCCCCCOC(=O)O[C@H]1C(O)[C@H](OCC23C[C@@H]4[C@H](C)CC[C@H]4C4(C=O)CC2C=C(C(C)C)C34C(=O)O)O[C@H](C)[C@H]1OC (stereo not given in full)
b. CCCCCC(=O)OC1C(O)[C@H](OCC23C[C@@H]4[C@H](C)CC[C@H]4C4(C=O)CC2C=C(C(C)C)C34C(=O)O)O[C@H](C)[C@H]1OC (single isomer, unassigned)
Param pair: a , b . Output: the one whose MIC is numerically greater. Indicate which entry you chose by stating its label.
a
(a: 1 µg/mL, b: 0.25 µg/mL)

a. CCCC(=O)OC1C(O)[C@H](OCC23C[C@@H]4[C@H](C)CC[C@H]4C4(C=O)CC2C=C(C(C)C)C34C(=O)O)O[C@H](C)[C@H]1OC (single isomer, unassigned)
b. CCCCC(C)C(=O)OC1C(O)[C@H](OCC23C[C@@H]4[C@H](C)CC[C@H]4C4(C=O)CC2C=C(C(C)C)C34C(=O)O)O[C@H](C)[C@H]1OC (single isomer, unassigned)
Field: lower MIC | Options: a / b Indicate which entry you chose by stating its label.
b
(b: 0.12 µg/mL, a: 1 µg/mL)
